System: A549/ATCC NSCLC
assay explanation: NCI-60 one-dose screen, 48 h (100 = growth as untreated, 0 = no growth, -100 = all killed)
measurement setup: 10 µM unless noted
Compounds without any hit were thinned out: in the full panel of roughly 83,000, 20% have a hit.
measurement name: growth (%)
Expressed in %, but write only the number.

So what's the measured growth for this one? O=c1ccn2nc3ccccc3c2[nH]1 116

Bench note: what growth did CN(C)CC1=NC2SC=C(c3ccccc3)C2C(=O)N1CC#N (configuration not stated) show? 96.3

GET /values?readout=growth&item= CCSC1=NC2C(N(CC)C(=O)N2CC)N1/N=C/C=C/c1ccccc1[N+](=O)[O-] (configuration not stated) 19

Entry under review: COc1ccc(C(=O)Nn2c(NCC(=O)N3c4ccccc4Sc4ccccc43)nnc2-c2ccc(O)cc2)cc1 . Reported growth? 97.5

What value of measured growth is listed for COc1cccc(-c2nc3sccn3c2-c2ccnc(NCCNS(=O)(=O)c3cccc(Cl)c3)c2)c1 ? 45.4

Which growth value belongs to COc1ccc2c(c1)[nH]c(=O)c1c3cccnc3cn21 ? 13

Param item = CCN1CCN(c2nc(C)cc(NCc3cc(Nc4ccnc5cc(Cl)ccc45)ccc3F)n2)CC1 ; retrieve measured growth. 28

Bench note: what growth did O=[N+]([O-])c1ccc(OCCO)cc1 show? 105

Consider the compound shown here: Cc1ccc(/C=C/c2c(C(=O)/C=C/c3ccc(Cl)cc3)c(C)nc3ccccc23)cc1 What is its recorded growth? 78.8

Quick one: growth of O=c1cc(C2NNC(=S)N2)c2ccc3ccccc3c2o1 (configuration not stated) ? 108

Query: growth; subject: COc1ccc(/C=N/C2=C(C#N)C(c3ccc(OC)cc3)c3ccc4ccccc4c3O2)cc1 (configuration not stated) 83.7

Report growth for COc1cc2ncn3c(=O)c4c5c(sc4nc3c2cc1OC)CCCC5 please. 96.4

Query (compound): COC(=O)c1ccc(CSc2nnc(-c3c(C)nc4ccc(C)cn34)o2)cc1 ; field requested: growth 103

Return reported growth; argument: COc1ccc2cc(-c3cc(OC)c(OC)c(OC)c3)c(=O)oc2c1 42.1

Requested read-out: growth. Entry: COc1nc(N(C)O)nc(N(C)O)n1 33.7

For the compound c1ccc(Nc2nc(-c3ccccn3)cs2)nc1 , what growth is on record? 11.2

// growth lookup, key: COC(=O)/C=C1\S/C(=N\NS(=O)(=O)c2ccc(C)cc2)N(c2ccccc2)C1=O 98.6

# get_value(readout='growth', item= NC(=S)N/N=C/Cc1ccccc1 ) 90.6

// query growth value for entry CCOC(=O)c1c2ncccc2n2c(=O)n(-c3ccccc3C)nnc12 102

Which growth is reported for this compound? CCCCNC(=O)Oc1ccc2c(=O)c3sc4c(=O)c5ccccc5c(=O)c4c3c(=O)c2c1 -61.8

Looking for the measured growth of COc1cc(-c2nn(-c3ccccc3)cc2-c2ccnc(NCCNS(=O)(=O)c3ccc(Cl)cc3)n2)ccc1Cl , can you help? 13.3

# query: growth of entry CCCc1cc2c(=O)c(C(=O)OC)c[nH]c2cc1N(CC)CC -20
